- System Name: T1, human IL-23 (human, UniProt Q9NPF7 20-189; P29460 23-328)
- T1 construct: Heterodimer of p19 and p40; also called hIL-23
- T1 sequence 1: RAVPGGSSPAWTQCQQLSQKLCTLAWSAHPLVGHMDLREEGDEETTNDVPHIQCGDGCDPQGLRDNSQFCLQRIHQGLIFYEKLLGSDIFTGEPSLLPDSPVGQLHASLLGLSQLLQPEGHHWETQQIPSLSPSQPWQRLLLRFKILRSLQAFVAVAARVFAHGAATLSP
- T1 sequence 2: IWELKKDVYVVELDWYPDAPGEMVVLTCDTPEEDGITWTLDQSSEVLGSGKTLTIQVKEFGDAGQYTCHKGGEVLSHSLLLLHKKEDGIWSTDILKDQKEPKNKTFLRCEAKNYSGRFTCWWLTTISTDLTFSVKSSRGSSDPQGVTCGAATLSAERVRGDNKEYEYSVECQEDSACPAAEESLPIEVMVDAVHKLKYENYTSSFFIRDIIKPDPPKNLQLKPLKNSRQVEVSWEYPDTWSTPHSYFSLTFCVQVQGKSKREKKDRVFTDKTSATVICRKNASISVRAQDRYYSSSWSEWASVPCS
- Protocol Text: SPR Biacore T100, mAb from HEK supernatant captured on anti-human IgG, human IL-23 64-0.062 nM
Measured Kd accompanies every entry in the list below.
A number alone suffices; assume nM.

Reference set, count: 3
A24AM18 (antibody, human IgG1, kappa, V domains shown) VH: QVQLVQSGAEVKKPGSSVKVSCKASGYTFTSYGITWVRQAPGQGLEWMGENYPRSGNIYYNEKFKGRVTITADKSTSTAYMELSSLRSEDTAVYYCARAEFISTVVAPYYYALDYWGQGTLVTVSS VL: DIVMTQSPDSLAVSLGERATINCKASKKVTIFGSTSALHWYQQKPGQPPKLIYNLAKPESGVPDRFSGSGSGTDFTLTISSLQAEDVAVYYCLQNKEVPYTFGGGTKVEIKR
0.051
A5M20 (antibody, human IgG1, kappa, V domains shown) VH: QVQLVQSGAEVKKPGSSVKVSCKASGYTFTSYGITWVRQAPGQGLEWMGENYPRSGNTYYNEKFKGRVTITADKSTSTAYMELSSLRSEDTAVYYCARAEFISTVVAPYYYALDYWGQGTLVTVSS VL: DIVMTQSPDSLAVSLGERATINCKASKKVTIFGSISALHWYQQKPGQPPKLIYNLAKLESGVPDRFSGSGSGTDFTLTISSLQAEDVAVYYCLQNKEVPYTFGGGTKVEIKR
0.066
A6M20 (antibody, human IgG1, kappa, V domains shown) VH: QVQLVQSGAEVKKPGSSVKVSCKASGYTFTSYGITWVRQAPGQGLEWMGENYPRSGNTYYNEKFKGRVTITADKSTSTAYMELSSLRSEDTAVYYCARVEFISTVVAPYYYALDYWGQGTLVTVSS VL: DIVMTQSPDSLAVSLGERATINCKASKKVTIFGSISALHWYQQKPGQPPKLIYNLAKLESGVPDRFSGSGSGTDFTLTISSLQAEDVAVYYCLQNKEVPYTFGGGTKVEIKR
0.078

Request: For the binder shown here, A3M18 (antibody, human IgG1, kappa, V domains shown) VH: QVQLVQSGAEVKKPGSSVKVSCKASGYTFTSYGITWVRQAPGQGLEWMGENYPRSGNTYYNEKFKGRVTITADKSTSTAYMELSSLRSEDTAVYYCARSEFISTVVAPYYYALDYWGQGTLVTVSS VL: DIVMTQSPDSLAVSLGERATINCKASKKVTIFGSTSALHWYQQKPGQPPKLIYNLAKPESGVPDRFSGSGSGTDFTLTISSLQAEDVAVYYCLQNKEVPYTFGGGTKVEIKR , give the reported Kd.
Result: 0.066

Request: For the binder shown here, A5M21 (antibody, human IgG1, kappa, V domains shown) VH: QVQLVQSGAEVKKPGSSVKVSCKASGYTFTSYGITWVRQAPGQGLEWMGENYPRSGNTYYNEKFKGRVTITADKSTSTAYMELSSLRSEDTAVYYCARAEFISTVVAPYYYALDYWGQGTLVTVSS VL: DIVMTQSPDSLAVSLGERATINCKASKKVTIYGSTSALHWYQQKPGQPPKLIYNLAKPESGVPDRFSGSGSGTDFTLTISSLQAEDVAVYYCLQNKEVPYTFGGGTKVEIKR , give the reported Kd.
Result: 0.065

Request: For the binder shown here, A3M0 (antibody, human IgG1, kappa, V domains shown, human gamma1 and kappa constant regions; Tested as HEK supernatant and as purified antibody; also called A3M0 purified) VH: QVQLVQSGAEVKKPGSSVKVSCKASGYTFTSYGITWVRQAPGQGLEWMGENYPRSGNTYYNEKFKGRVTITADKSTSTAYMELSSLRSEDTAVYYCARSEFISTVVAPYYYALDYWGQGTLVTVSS VL: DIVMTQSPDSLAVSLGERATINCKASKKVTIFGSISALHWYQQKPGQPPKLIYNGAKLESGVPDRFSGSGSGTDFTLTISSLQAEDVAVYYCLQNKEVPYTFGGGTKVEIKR , give the reported Kd.
Result: 0.207
